Experiment: Pharmacokinetic parameters following intravenous and oral administration in rats
Assay type: in vivo, male Wistar rats
Conditions: male, Wistar, rat, plasma, iv, intravenous administration, read-out: MRT
Structures can show the parent of a compound that is named as a salt.
So I've got a bunch of compounds here, and I need their MRT values.
Numbers only, in h.

Examples with answers:
compound	MRT, h
CC(C)CN1CCN(c2ccc(-c3ccc(Cl)cc3N3CCCC(n4ncc(C(=O)O)c4C(F)F)C3)cc2)CC1 (single isomer, unassigned) [Example 1, hydrochloride]	2.24
O=C(O)c1cnn(-c2cccc(-c3cc(Cl)ccc3-c3ccc(N4CCN(CC5CC5)CC4)cc3)n2)c1C(F)(F)F [Comparative Example 174 (WO2012/058132), reference compound]	2.78

Please look at the items below and tell me MRT for each one, in order.
1. O=C(O)c1cnn(C2CCCN(c3cc(Cl)ccc3-c3ccc(N4CCN(CC5CC5)CC4)cc3)C2)c1C(F)(F)F (single isomer, unassigned) [Example 10, hydrochloride]
2. O=C(O)c1cnn(C2CCCN(c3cc(Cl)ccc3-c3ccc(N4CCN(CC5CC5)CC4)cc3)C2)c1C(F)F (single isomer, unassigned) [Example 5, hydrochloride]

Result:
2.39
2.88
